Measured pIC50, listed per entry.
Tested on: HIV
Assay Notes: MT4 assay: antiviral HIV activity (cell protection, cell titer glo readout at 96 hours)
Format: cell-based
Assay Conditions: Human immunodeficiency virus 1, MT4, 96 h, MT4 cells, cell titer glo readout at 96 hours, 10 point dose response; read-out: HIV MT4 Assay IC50
Just the number, please; pIC50 means minus log10 of the concentration in mol/L.

Use these answered entries as a reference point.
>  <Molecule>
Cc1nc2c(cc(C(=O)N3CCCCC3)n2C)c(-c2cc(F)c3c(c2C)CCCO3)c1[C@H](OC(C)(C)C)C(=O)O [Example 251]

>  <Tested Target>
HIV

>  <pIC50>
7.55

$$$$
>  <Molecule>
Cc1nc2c(cc(-c3ccnc(C#Cc4cncn4C)c3)n2C)c(-c2cc(F)c3c(c2C)CCCO3)c1[C@H](OC(C)(C)C)C(=O)O (atropisomer, axis not shown; (M)) [Example 154]

>  <Tested Target>
HIV

>  <pIC50>
7.96

$$$$
>  <Molecule>
Cc1nc2c(cc(-c3ccnc(-c4ccc5c(cnn5C)c4)c3)n2C)c(-c2ccc3c(c2C)CCCO3)c1[C@H](OC(C)(C)C)C(=O)O (atropisomer, axis not shown; (M)) [Example 1]

>  <Tested Target>
HIV

>  <pIC50>
8.77

$$$$
>  <Molecule>
Cc1nc2c(cc(-c3ccnc(C(=O)NC4CCCCC4)c3)n2C)c(-c2cc(F)c3c(c2C)CCCO3)c1[C@H](OC(C)(C)C)C(=O)O (atropisomer, axis not shown) [Example 152]

>  <Tested Target>
HIV

>  <pIC50>
7.14

$$$$
>  <Molecule>
CCN(CC)C(=O)C1CCCN(C(=O)c2cc3c(-c4cc(F)c5c(c4C)CCCO5)c([C@H](OC(C)(C)C)C(=O)O)c(C)nc3n2C)C1 (stereo partly shown) [Example 207]

>  <Tested Target>
HIV

>  <pIC50>
6.51

$$$$

Query (molecule): Cc1nc2c(cc(-c3ccnc(N4CCN(C(=O)N(C)C)CC4)c3)n2C)c(-c2cc(F)c3c(c2C)CCCO3)c1[C@H](OC(C)(C)C)C(=O)O (atropisomer, axis not shown) [Example 115] ; field requested: pIC50
7.81

Query (molecule): Cc1nc2c(cc(-c3ccc4nccn4c3)n2C)c(-c2cc(F)c3c(c2C)CCCO3)c1[C@H](OC(C)(C)C)C(=O)O (atropisomer, axis not shown) [Example 136] ; field requested: pIC50
7.37

Query (molecule): Cc1nc2c(cc(C(=O)N3CCC4(CCCC4)CC3)n2C)c(-c2cc(F)c3c(c2C)CCCO3)c1[C@H](OC(C)(C)C)C(=O)O [Example 193] ; field requested: pIC50
7.91

Query (molecule): Cc1nc2c(cc(-c3ccc4c(c3)N(C)CCO4)n2C)c(-c2cc(F)c3c(c2C)CCCO3)c1[C@H](OC(C)(C)C)C(=O)O (atropisomer, axis not shown) [Example 135] ; field requested: pIC50
6.90

Query (molecule): Cc1nc2c(cc(CN3CC[C@@H](NC(=O)c4ccc5c(cnn5C)c4)C3)n2C)c(-c2cc(F)c3c(c2C)CCCO3)c1[C@H](OC(C)(C)C)C(=O)O [Example 293] ; field requested: pIC50
7.35

Query (molecule): Cc1nc2c(cc(C(=O)N3CCN(c4ccncc4)CC3)n2C)c(-c2cc(F)c3c(c2C)CCCO3)c1[C@H](OC(C)(C)C)C(=O)O [Example 169] ; field requested: pIC50
5.91

Query (molecule): Cc1nc2c(cc(C(=O)NCCC(C)(C)C)n2C)c(-c2cc(F)c3c(c2C)CCCO3)c1[C@H](OC(C)(C)C)C(=O)O [Example 232] ; field requested: pIC50
8.70

Query (molecule): COCCN(CCOC)C(=O)c1cc2c(-c3cc(F)c4c(c3C)CCCO4)c([C@H](OC(C)(C)C)C(=O)O)c(C)nc2n1C [Example 269] ; field requested: pIC50
7.09
